# Test system: PC-3
# assayExplanation: NCI tumour cell line growth inhibition, 48 h
Calls of active or inactive are those of the source. Cut-off read from the data, not from the text of the source: active = GI50 up to about 1.1 µM and inactive = higher.
Could you please pick one outcome from this set? active, inactive

Task: Short answer needed: outcome of this test for "O=C(NNC(=O)c1ccncc1)c1ccncc1" ?
Output: inactive

Task: Short answer needed: outcome of this test for "CO/C(=C/C(=O)C(Cl)(Cl)Cl)CC/C(=C\C(=O)C(Cl)(Cl)Cl)OC" ?
Output: inactive

Task: Short answer needed: outcome of this test for CCC1CN2CCc3cc(OC)c(OC)cc3C2CC1CC1c2cc(OC)c(OC)cc2CCN1C(=O)C(Cc1c[nH]c2ccccc12)NC(=O)OC(C)(C)C (stereo not given) ?
Output: inactive

Task: Short answer needed: outcome of this test for CN1N=C(N)c2cn(C3OC(COP(=O)(O)O)C(O)C3O)c3ncnc1c23 (stereo not given) ?
Output: active

Task: Short answer needed: outcome of this test for "Cc1cn(CC(=S)NCCc2c[nH]c3ccccc23)c(=O)[nH]c1=O" ?
Output: inactive

Task: Short answer needed: outcome of this test for COc1ccc(NC(C)=O)cc1C1CCC(=O)N1 (stereo not given) ?
Output: inactive

Task: Short answer needed: outcome of this test for "O=C(CCCc1ccccn1)c1ccccc1" ?
Output: inactive

Task: Short answer needed: outcome of this test for "COc1ccc(CCc2nccn2C)cc1OC" ?
Output: inactive

Task: Short answer needed: outcome of this test for CC(C)=CCc1c2c(c(O)c3c(=O)c4c(oc13)-c1ccc(O)cc1OC4C=C(C)C)C=CC(C)(C)O2 (stereo not given) ?
Output: inactive

Task: Short answer needed: outcome of this test for "O=C1CCC[C@H]2O[C@@H](COC(=O)c3ccccc3)C[C@H]2O1" ?
Output: inactive

---

# Test system: 786-0
# assayExplanation: NCI tumour cell line growth inhibition, 48 h
The source made the active and inactive calls. No stated cut-off is given here; in the data, active = GI50 up to about 1.1 µM and inactive = higher.
Give measured GI50 for each item. Keep answers brief.

Task: If you can, please state the reported GI50 value of COC(=O)C1=Cc2cc(OC)c(OC)c(OC)c2[C@H](c2cc(OC)c(OC)c(OC)c2)C1C(=O)OC (stereo not given in full) .
Output: > 100 µM (inactive)

Task: If you can, please state the reported GI50 value of "CN(C)CCCNC(=O)c1c(O)c2ccccc2n(C)c1=O" .
Output: 65.3 µM (inactive)

Task: If you can, please state the reported GI50 value of "O=C(c1cc2ccccc2[nH]1)C(O)(c1cc2ccccc2[nH]1)c1cc2ccccc2[nH]1" .
Output: > 246 µM (inactive)

Task: If you can, please state the reported GI50 value of "COc1cc(S(=O)(=O)Nc2ccc(-c3csc(/N=C\C=C\c4ccccc4)n3)cc2)ccc1Cl" .
Output: > 100 µM (inactive)

Task: If you can, please state the reported GI50 value of COC(=O)/C(C#N)=C1\CCC(OC)N1C (stereo not given) .
Output: > 100 µM (inactive)

---

# Tested on: SF-295
# assayExplanation: NCI tumour cell line growth inhibition, 48 h
The source made the active and inactive calls. Cut-off read from the data, not from the text of the source: active = GI50 up to about 1.1 µM and inactive = higher.
Give measured GI50 for each item. Keep answers brief.

Task: If you can, please state the reported GI50 value of Cc1nn(C(=O)Cc2ccccc2)c2c1C(c1ccc([N+](=O)[O-])cc1)SC(=N)N2 (stereo not given) .
Output: > 100 µM (inactive)

Task: If you can, please state the reported GI50 value of CN(C)CC1CC/C(=C\c2ccc(Cl)cc2)C1=O (stereo not given) .
Output: 17.2 µM (inactive)

Task: If you can, please state the reported GI50 value of "O=C1C=C(C2=C(C3=CC(=O)c4ccccc4C3=O)C(=O)c3ccccc3C2=O)C(=O)c2ccccc21" .
Output: 16.1 µM (inactive)

Task: If you can, please state the reported GI50 value of N#CCC(=O)N/N=C(\C(=O)Nc1ccc(Cl)c(Cl)c1)C1CN(c2ccccc2)N=C1N (stereo not given) .
Output: > 100 µM (inactive)

Task: If you can, please state the reported GI50 value of "O=C1/C(=C/c2ccc(O)cc2)NC(=S)N1CN1CCCCC1" .
Output: 89.7 µM (inactive)

Task: If you can, please state the reported GI50 value of "O=[N+]([O-])c1ccc(/N=N/c2c(O)ccc3cc(S(=O)(=O)O)ccc23)cc1" .
Output: > 100 µM (inactive)

Task: If you can, please state the reported GI50 value of "Cc1cc(C)c2c(=O)cc(-c3ccccc3)[nH]c2c1" .
Output: 3.63 µM (inactive)

Task: If you can, please state the reported GI50 value of "CCOC(=O)Nn1cnnc1C" .
Output: > 100 µM (inactive)

Task: If you can, please state the reported GI50 value of O=C1C2=C(c3ccccc31)C(c1ccccc1Cl)NC(S)=N2 (stereo not given) .
Output: 51.1 µM (inactive)

Task: If you can, please state the reported GI50 value of CC(/C=C/NNC1=NN=C(c2ccccc2)C(c2ccccc2)N1)Sc1ccccc1N (stereo not given) .
Output: 10.5 µM (inactive)

Task: If you can, please state the reported GI50 value of "COc1ccc(/C(Cl)=C(\C=O)c2ccc(Cl)cc2)cc1" .
Output: 4.4 µM (inactive)

Task: If you can, please state the reported GI50 value of "O=C1c2ccccc2C(=O)c2nc3c(O)cccc3cc21" .
Output: 12.7 µM (inactive)

Task: If you can, please state the reported GI50 value of CC(C)CCC[C@@H](C)C1CCC2[C@@H]3CC=C4C[C@@H](C(=O)NCC[N+](C)(C)CCCS(=O)(=O)[O-])CC[C@]4(C)C3CC[C@@]21C (stereo not given in full) .
Output: 20 µM (inactive)

Task: If you can, please state the reported GI50 value of CCC1CN2CCc3cc(OC)c(OC)cc3C2CC1CC1c2cc(OC)c(OC)cc2CCN1C(=O)C(Cc1c[nH]c2ccccc12)NC(=O)OC(C)(C)C (stereo not given) .
Output: 3.97 µM (inactive)

Task: If you can, please state the reported GI50 value of "CCOC(=O)c1csc(CCCCCCc2nc(C(=O)OCC)cs2)n1" .
Output: 52.2 µM (inactive)

Task: If you can, please state the reported GI50 value of "Cc1ccc(-c2c(C#N)c(-c3ccc(Cl)cc3)c(C#N)c(=O)n2NS(=O)(=O)c2ccccc2)cc1" .
Output: 60.8 µM (inactive)

Task: If you can, please state the reported GI50 value of CC1OC(=O)C2CC3CCCCC3C(/C=C/C3CCCC(C)N3C)C12 (stereo not given) .
Output: 63.1 µM (inactive)

Task: If you can, please state the reported GI50 value of "CNc1ccc(/C=C2\C=Cc3ccccc32)cc1" .
Output: 31.3 µM (inactive)

Task: If you can, please state the reported GI50 value of "O=c1cc(-c2ccc(Cl)cc2)oc2cc(OCCCOc3ccc4c(=O)cc(-c5ccc(Cl)cc5)oc4c3)ccc12" .
Output: > 100 µM (inactive)

Task: If you can, please state the reported GI50 value of C/C1=C\CC[C@@]2(C)O[C@@H]2[C@H]2OC(=O)C(C)C2C[C@H]1O (stereo not given in full) .
Output: > 100 µM (inactive)

The measurements presented in this section are drawn from ChEMBL document CHEMBL1201862.
